Target: T1, Ac-VQIINK-NH2
T1 peptide: Ac-VQIINK-NH2
Test: cell-based or functional assay
Square brackets hold non-standard residues; d marks the D form. Ends that are not written are not given here. hArg = N=C(N)NCCCC[C@H](N)C(=O)O
value.type: IC50 (µM), VQIINK Inhibition (ThT)

Known IC50 (µM), VQIINK Inhibition (ThT) results, listed for orientation:
Entry RIWLRVW : reported IC50 (µM), VQIINK Inhibition (ThT) = ?
4.09 µM

# iterate: IRIWIW
2.94 µM

# iterate: WRIRIRR
34.1 µM

# iterate: WY[hArg]L[hArg]I[hArg]W [WY(hR)L(hR)I(hR)W]
2.95 µM

# iterate: WLKVQVRLW
1.71 µM

# iterate: RIRILIL
1.64 µM

# iterate: WRIWIRRW
3.85 µM

Could you now look at the following binder, please?
Entry WRIWIRYR : reported IC50 (µM), VQIINK Inhibition (ThT) = ?
3.33 µM
